Cited source for all entries: ChEMBL document CHEMBL2407067

Assay: Fraction unbound in human plasma
Format: ADME, cell-free
Outcome measure: fraction unbound

> print(dat)
                            compound.string  quantitative.readout
1  CC(C)(O/N=C(\C(=O)N[C@@H]1C(=O)N(S(=O)(=O)[O-])[C@@H]1CNC(=O)OCc1cc(=O)c(O)cn1O)c1csc(N)n1)C(=O)[O-].[Na+].[Na+]                  0.51

[P] CC(C)(O/N=C(\C(=O)N[C@@H]1C(=O)N(S(=O)(=O)O)[C@@H]1Cn1cc(COCc2cc(=O)c(O)cn2O)nn1)c1csc(N)n1)C(=O)O
[Q] CC(C)(O/N=C(\C(=O)N[C@@H]1C(=O)N(S(=O)(=O)O)[C@@H]1CNC(=O)NCc1cc(=O)c(O)cn1O)c1csc(N)n1)C(=O)O
From the recorded data, which exceeds the other in fraction unbound: P or Q ? State the label of the item chosen. Q

###

Tested on: Acinetobacter baumannii
Experiment: Antibacterial activity against Acinetobacter baumannii AB-3167 by broth microdilution method
Format: functional
Outcome measure: MIC (µg/mL)

Known MIC results, listed for orientation:
Compound	Measure unit	MIC
Nc1nc(/C(=N/OCCO)C(=O)N[C@@H]2C(=O)N(S(=O)(=O)O)[C@@H]2CNC(=O)NCc2cc(=O)c(O)cn2O)cs1	µg/mL	0.5
CC(C)(O/N=C(\C(=O)N[C@@H]1C(=O)N(S(=O)(=O)O)[C@@H]1Cn1cc(-c2cc(=O)c(O)cn2O)nn1)c1csc(N)n1)C(=O)O	µg/mL	0.125
CC(C)(O/N=C(\C(=O)N[C@@H]1C(=O)N(S(=O)(=O)O)[C@@H]1Cn1cc(COCc2cc(=O)c(O)cn2O)nn1)c1csc(N)n1)C(=O)O	µg/mL	0.25

[I] Nc1nc(/C(=N/OC2CCCC2)C(=O)N[C@@H]2C(=O)N(S(=O)(=O)O)[C@@H]2CNC(=O)NCc2cc(=O)c(O)cn2O)cs1
[II] CC(C)(O/N=C(\C(=O)N[C@@H]1C(=O)N(S(=O)(=O)O)[C@@H]1CNC(=O)c1cc(=O)c(O)cn1-c1ccccc1)c1csc(N)n1)C(=O)O
[III] Nc1nc(/C(=N/OC2(C(=O)O)CCC2)C(=O)N[C@@H]2C(=O)N(S(=O)(=O)O)[C@@H]2CNC(=O)NCc2cc(=O)c(O)cn2O)cs1
[IV] CNn1cc(O)c(=O)cc1C(=O)NC[C@@H]1[C@H](NC(=O)/C(=N\OC(C)(C)C(=O)O)c2csc(N)n2)C(=O)N1S(=O)(=O)O
Reorder: MIC, max to min. API: response body holds the labels in the requested order. II, IV, I, III
(II: 32 µg/mL, IV: 2 µg/mL, I: 1 µg/mL, III: 0.125 µg/mL)

###

Assay: Fraction unbound in rat plasma
Type: ADME, cell-free
Outcome measure: fraction unbound

> print(dat)
                            compound.string  quantitative.readout
1  CC(C)(O/N=C(\C(=O)N[C@@H]1C(=O)N(S(=O)(=O)O)[C@@H]1Cn1cc(COCc2cc(=O)c(O)cn2O)nn1)c1csc(N)n1)C(=O)O                   0.6

[P] CC(C)(O/N=C(\C(=O)N[C@@H]1C(=O)N(S(=O)(=O)[O-])[C@@H]1CNC(=O)OCc1cc(=O)c(O)cn1O)c1csc(N)n1)C(=O)[O-].[Na+].[Na+]
[Q] CC(C)(O/N=C(\C(=O)N[C@@H]1C(=O)N(S(=O)(=O)O)[C@@H]1CNC(=O)NCc1cc(=O)c(O)cn1O)c1csc(N)n1)C(=O)O
From the recorded data, which exceeds the other in fraction unbound: P or Q ? State the label of the item chosen. Q
(Q: 0.91, P: 0.61)
